Test system: 947758-054-R-J2-PDC spheroid growth, percent test/control
Assay: Anticancer human tumor 947758-054-R-J2-PDC patient-derived colon adenocarcinoma cell line growth inhibition [CLK]
Conditions: curve of first compound; second compound 1 µM; spheroids with HUVEC and MSC
pIC50: −log10 of the molar value.
Answer each item with its documented pIC50.

{"columns": ["compound", "target.of.assay", "pIC50"],
 "data": [
  ["CC(C)CC(NC(=O)C(Cc1ccccc1)NC(=O)c1cnccn1)B(O)O (stereo not given) + CNC(=O)c1ccc(Nc2nc(OC3CCCC3)c3c(-c4ccc5nc(C)oc5c4)c[nH]c3n2)c(OC)c1", "947758-054-R-J2-PDC spheroid growth, percent test/control", 8.85],
  ["CC1COCCN1c1cc(C2(S(C)(=N)=O)CC2)nc(-c2ccnc3[nH]ccc23)n1 (stereo not given) + CN1CCN(c2cc(C(=O)Nc3cc4cc(-c5cnn(C)c5)ccc4cn3)ccn2)CC1", "947758-054-R-J2-PDC spheroid growth, percent test/control", "> 7.50"]
]}

Need pIC50 for each of these compounds.
1. CC1COCCN1c1cc(C2(S(C)(=N)=O)CC2)nc(-c2ccnc3[nH]ccc23)n1 (stereo not given) + CNC(=O)c1ccc(Nc2nc(OC3CCCC3)c3c(-c4ccc5nc(C)oc5c4)c[nH]c3n2)c(OC)c1
2. COc1cccc2c1C(=O)c1c(O)c3c(c(O)c1C2=O)CC(O)(C(=O)CO)CC3OC1CC(N)C(O)C(C)O1 (stereo not given) + CNC(=O)c1ccc(Nc2nc(OC3CCCC3)c3c(-c4ccc5nc(C)oc5c4)c[nH]c3n2)c(OC)c1

result:
1: 6.51; 2: > 7.50

----------
System: 947758-054-R-J2-PDC spheroid growth, percent test/control
Assay: Anticancer human tumor 947758-054-R-J2-PDC cell line growth inhibition [CLK];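 also: spheroids exposed to compounds for one week before readout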;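 as to viability, T/C: 100% = DMSO vehicle control wells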
Settings: second compound 1 µM; first compound 10 µM; stronger effect = lower value; spheroids with HUVEC and MSC
observation.type: viability, T/C (%)
Answers are plain numbers, in %.

Answered examples (3):
{"columns": ["compound", "target.of.assay", "units.label", "viability, T/C"],
 "data": [
  ["CC1COCCN1c1cc(C2(S(C)(=N)=O)CC2)nc(-c2ccnc3[nH]ccc23)n1 (stereo not given) + CN1CCN(c2cc(C(=O)Nc3cc4cc(-c5cnn(C)c5)ccc4cn3)ccn2)CC1", "947758-054-R-J2-PDC spheroid growth, percent test/control", "%", 0.13],
  ["COc1cccc2c1C(=O)c1c(O)c3c(c(O)c1C2=O)CC(O)(C(=O)CO)CC3OC1CC(N)C(O)C(C)O1 (stereo not given) + CNC(=O)c1ccc(Nc2nc(OC3CCCC3)c3c(-c4ccc5nc(C)oc5c4)c[nH]c3n2)c(OC)c1", "947758-054-R-J2-PDC spheroid growth, percent test/control", "%", 6.92],
  ["CC(=O)O[C@H]1C(=O)[C@@]2(C)[C@H]([C@H](OC(=O)c3ccccc3)[C@]3(O)C[C@H](OC(=O)[C@H](O)[C@@H](NC(=O)c4ccccc4)c4ccccc4)C(C)=C1C3(C)C)[C@]1(OC(C)=O)CO[C@@H]1C[C@@H]2O + CN1CCN(c2cc(C(=O)Nc3cc4cc(-c5cnn(C)c5)ccc4cn3)ccn2)CC1", "947758-054-R-J2-PDC spheroid growth, percent test/control", "%", 0.09]
]}

Give one value of viability, T/C per listed compound.
1. CC(CO)NC(=O)c1cc(-c2ccc(Cl)cc2)nn(-c2cnn(C)c2)c1=O (stereo not given) + CN1CCN(c2cc(C(=O)Nc3cc4cc(-c5cnn(C)c5)ccc4cn3)ccn2)CC1
2. COc1ccc([C@@H](O)c2cc(-c3ncnc4cc(N5CCOCC5)ccc34)c(F)cc2Cl)nn1 + CNC(=O)c1ccc(Nc2nc(OC3CCCC3)c3c(-c4ccc5nc(C)oc5c4)c[nH]c3n2)c(OC)c1
3. COc1ccc([C@@H](O)c2cc(-c3ncnc4cc(N5CCOCC5)ccc34)c(F)cc2Cl)nn1 + CN1CCN(c2cc(C(=O)Nc3cc4cc(-c5cnn(C)c5)ccc4cn3)ccn2)CC1
4. CC(CO)NC(=O)c1cc(-c2ccc(Cl)cc2)nn(-c2cnn(C)c2)c1=O (stereo not given) + CNC(=O)c1ccc(Nc2nc(OC3CCCC3)c3c(-c4ccc5nc(C)oc5c4)c[nH]c3n2)c(OC)c1
5. Nc1ccccc1NC(=O)c1ccc(CNC(=O)OCc2cccnc2)cc1 + CN1CCN(c2cc(C(=O)Nc3cc4cc(-c5cnn(C)c5)ccc4cn3)ccn2)CC1
6. O=c1[nH]cc(F)c(=O)[nH]1 + CNC(=O)c1ccc(Nc2nc(OC3CCCC3)c3c(-c4ccc5nc(C)oc5c4)c[nH]c3n2)c(OC)c1
7. C#Cc1c(F)ccc2cc(O)cc(-c3ncc4c(N5CC6CCC(C5)N6)nc(OCC56CCCN5CC(F)C6)nc4c3F)c12 (stereo not given) + CNC(=O)c1ccc(Nc2nc(OC3CCCC3)c3c(-c4ccc5nc(C)oc5c4)c[nH]c3n2)c(OC)c1

result:
1: 0.14; 2: 6.15; 3: 0.46; 4: 35.9; 5: 2.05; 6: 13.2; 7: 38.1
